Values compiled from paper PMC7018876.

molecular target: T1, human proprotein convertase subtilisin/kexin type 9, his tagged antigen (Homo sapiens, UniProt Q8NBP7); assay: SPR; hPCSK9-his on CM5 chip (~800 RU); 6 or 7-point two-fold dilutions of the VHH-based proteins injected; 25 °C; global fit with floating Rmax; Biacore T200; details: both partners purified
T1 construct: human PCSK9; also called hPCSK9; PCSK9; source: bought: Sinobiological, China, Cat# 29698-H08H
T1 sequence (Q8NBP7 31-692): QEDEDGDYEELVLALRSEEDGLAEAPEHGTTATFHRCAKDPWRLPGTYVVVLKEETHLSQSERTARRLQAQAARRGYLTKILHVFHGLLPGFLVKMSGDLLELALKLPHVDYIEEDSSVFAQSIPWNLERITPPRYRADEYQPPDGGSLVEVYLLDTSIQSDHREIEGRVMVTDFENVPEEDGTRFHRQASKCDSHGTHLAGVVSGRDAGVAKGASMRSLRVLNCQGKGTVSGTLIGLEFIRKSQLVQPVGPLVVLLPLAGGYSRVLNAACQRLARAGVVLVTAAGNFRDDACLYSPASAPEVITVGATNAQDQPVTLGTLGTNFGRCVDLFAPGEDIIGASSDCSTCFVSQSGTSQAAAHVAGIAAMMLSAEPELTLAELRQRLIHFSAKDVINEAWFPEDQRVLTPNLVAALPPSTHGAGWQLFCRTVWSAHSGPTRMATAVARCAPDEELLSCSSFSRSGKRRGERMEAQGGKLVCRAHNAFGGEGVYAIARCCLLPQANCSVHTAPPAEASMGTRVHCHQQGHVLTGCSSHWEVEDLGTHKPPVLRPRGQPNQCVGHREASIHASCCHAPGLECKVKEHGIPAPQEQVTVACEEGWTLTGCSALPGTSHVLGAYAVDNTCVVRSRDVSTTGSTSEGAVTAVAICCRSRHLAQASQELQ
I'd be grateful if you could share measured koff for these entries.
Provide only the numeric value, understood in s⁻¹.

Request: Look up koff of VHH-B11 (VHH, llama anti-hPCSK9 VHH from an immune phage library; 17 kDa on SDS-PAGE; also called monovalent VHH-B11; monovalency VHH-B11; source: E. coli, supernatant of TES lysate (screening); E. coli induced by IPTG, and Pichia pastoris X33, purified (Histrap FF column)) VHH: EVQLVESGGGSVQAGGSLRLSCTVSGYTYSSNCMGWFRQAPGKEHEGVASIYIGGGSTYYADSVKGRFTISQDNAKNTVYLQMNSLKPEDTAMYYCAVGCQGLVDFGYWDQGTQVTVSS and report it.
Response: 0.00235

Request: Output measured koff for this item: VHH-G8 (VHH, llama anti-hPCSK9 VHH from an immune phage library; source: E. coli, supernatant of TES lysate (screening); E. coli induced by IPTG, and Pichia pastoris X33, purified (Histrap FF column)) VHH: DVQLVESGGGSVQAGGSLTLSCVVSGYRGQKICTGWFRQFPGMEREAVARILPRGPNTQYTDSVKGRFTISQDAAKNTVNLQMSSLKPKDTAMYYCAQGWGGASDWALQPRRYNYWGQGTQVTVSS
Response: 0.0114

Request: Fill in reported koff for this entry: VHH-H12 (VHH, llama anti-hPCSK9 VHH from an immune phage library; source: E. coli, supernatant of TES lysate (screening); E. coli induced by IPTG, and Pichia pastoris X33, purified (Histrap FF column)) VHH: GGGLVQAGGSLRLSCAASRSTFSGYAMAWFRQAPGKEREFVACIEREIPGHPAWSGLTYYADSKKGRFTISRDNAKNTVYLQMNSLKPEDTAVYYCAAGLKYPAQKHYDYDYWGQGTQVTVPS
Response: 0.00524

Request: Recall and state the measured koff for VHH-A6 (VHH, llama anti-hPCSK9 VHH from an immune phage library; source: E. coli, supernatant of TES lysate (screening); E. coli induced by IPTG, and Pichia pastoris X33, purified (Histrap FF column)) VHH: PGAAAGVGGGSVQAGGSLRLSCAASRYTDRTRCIAWFRQVPGKEREGVACLDRAGGQSAYADSAKGRFTVSQDNAGNTVYLQMDNLIPEDSAMYYCAAAGVGQWYTCLQKFIRDKRSFANWGQGTQVTVSS .
Response: 0.000447
